Taken from paper PMC9568543.

Reported Fold change values follow for various substances
# Target under test: Varroa mite proctolin receptor (VdProctR) (Varroa destructor, UniProt A0A7T1TE40)
# Sequence (A0A7T1TE40 entry or part of it): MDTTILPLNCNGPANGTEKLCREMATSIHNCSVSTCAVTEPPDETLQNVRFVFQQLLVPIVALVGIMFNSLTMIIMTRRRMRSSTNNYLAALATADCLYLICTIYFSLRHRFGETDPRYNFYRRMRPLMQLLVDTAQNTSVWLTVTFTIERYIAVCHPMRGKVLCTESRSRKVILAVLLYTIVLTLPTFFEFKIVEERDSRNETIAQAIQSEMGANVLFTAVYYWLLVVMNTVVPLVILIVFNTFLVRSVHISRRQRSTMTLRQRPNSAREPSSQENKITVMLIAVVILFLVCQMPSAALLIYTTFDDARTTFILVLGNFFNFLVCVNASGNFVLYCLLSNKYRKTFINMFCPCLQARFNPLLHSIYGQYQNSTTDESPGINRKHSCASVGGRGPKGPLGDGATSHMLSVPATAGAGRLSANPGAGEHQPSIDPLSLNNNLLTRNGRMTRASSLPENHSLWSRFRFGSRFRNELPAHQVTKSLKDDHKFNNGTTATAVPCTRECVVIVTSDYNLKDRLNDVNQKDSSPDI
# Assay explanation: Receptor activity assay (aequorin luminescence), CHO cells transiently expressing the receptor, first set of ligands
# Type: cell-based
# Conditions used: EC50 relative to proctolin, first set (transient expression)
Where no end group is shown, it is not given here.
No unit in the answer, please; the number alone is enough.

Solved entries (count: 2):
In [3]: df
Out[3]:
                    substance                         target_under_test  measured_metric  result_value
0  RYLGPT [Analog G4, RYLGPT]  Varroa mite proctolin receptor (VdProctR) (Varroa destructor, UniProt A0A7T1TE40)      Fold change        5444.9
1  RYLPGT [Analog G5, RYLPGT]  Varroa mite proctolin receptor (VdProctR) (Varroa destructor, UniProt A0A7T1TE40)      Fold change        3095.5

Record request: Fold change value, item RYGLPT [Analog G3, RYGLPT]
91508.8

Another substance: GRYLPT [Analog G1, GRYLPT]
199.7

Another substance: RGYLPT [Analog G2, RGYLPT]
71648.2

Another substance: RYLPTG [Analog G6, RYLPTG]
4088.2

* * *

# Target under test: Varroa mite proctolin receptor (VdProctR) (Varroa destructor, UniProt A0A7T1TE40)
# Assay explanation: Receptor activity assay, CHO cell line stably expressing the receptor, second set of ligands
# Format: cell-based
# Conditions used: EC50 relative to proctolin, second set (stable expression)
Where a SMILES comes first, the peptide text is derived from it. [ ]: non-standard residue; d: D form. Phe(4-Cl) = N[C@@H](Cc1ccc(Cl)cc1)C(=O)O; Phe(4-F) = N[C@@H](Cc1ccc(F)cc1)C(=O)O; Hyp = O=C(O)[C@@H]1C[C@@H](O)CN1
Measured metric: Fold change
No unit in the answer, please; the number alone is enough.

Molecule	Target under test	Result value
CC(C)C[C@H](NC(=O)[C@H](Cc1ccc(Cl)cc1)NC(=O)[C@@H](N)CCCNC(=N)N)C(=O)N1CCC[C@H]1C(=O)N[C@H](C(=O)O)[C@@H](C)O [Analog 2440, R[Phe(4-Cl)]LPT] (H-R[Phe(4-Cl)]LPT-OH)	Varroa mite proctolin receptor (VdProctR) (Varroa destructor, UniProt A0A7T1TE40)	0.2
CC(=O)N[C@@H](CCCNC(=N)N)C(=O)N[C@@H](Cc1ccc(Cl)cc1)C(=O)N[C@@H](CC(C)C)C(=O)N1C[C@H](O)C[C@H]1C(=O)N[C@H](C(=O)O)[C@@H](C)O [Ac-2443, Ac-R[Phe(4-Cl)]L[HyP]T] (Ac-R[Phe(4-Cl)]L[Hyp]T-OH)	Varroa mite proctolin receptor (VdProctR) (Varroa destructor, UniProt A0A7T1TE40)	37.5

Record request: Fold change value, item CC(C)C[C@H](NC(=O)[C@H](Cc1ccc(F)cc1)NC(=O)[C@@H](N)CCCNC(=N)N)C(=O)N1CCC[C@H]1C(=O)N[C@H](C(=O)O)[C@@H](C)O [Analog 2438, R[Phe(4-F)]LPT] (H-R[Phe(4-F)]LPT-OH)
0.7

Another molecule: CC(C)C[C@H](NC(=O)[C@H](Cc1ccc(F)cc1)NC(=O)[C@@H](N)CCCNC(=N)N)C(=O)N1C[C@H](O)C[C@H]1C(=O)N[C@H](C(=O)O)[C@@H](C)O [Analog 2441, R[Phe(4-F)]L[HyP]T] (H-R[Phe(4-F)]L[Hyp]T-OH; N-terminus and C-terminus assumed)
0.7

Another molecule: CC(=O)N[C@@H](CCCNC(=N)N)C(=O)N[C@@H](Cc1ccc(F)cc1)C(=O)N[C@@H](CC(C)C)C(=O)N1C[C@H](O)C[C@H]1C(=O)N[C@H](C(=O)O)[C@@H](C)O [Ac-2441, Ac-R[Phe(4-F)]L[HyP]T] (Ac-R[Phe(4-F)]L[Hyp]T-OH; N-terminus and C-terminus assumed)
61.5

* * *

Reported Fold change values follow for various molecules
# Target under test: Varroa mite proctolin receptor (VdProctR) (Varroa destructor)
# Assay explanation: Receptor activity assay (aequorin luminescence), CHO cells transiently expressing the receptor, first set of ligands
# Assay type: cell-based
# Conditions used: EC50 relative to proctolin, first set (transient expression)
Where a SMILES comes first, the peptide text is derived from it. [ ]: non-standard residue; d: D form. Oic = O=C(O)[C@@H]1C[C@@H]2CCCC[C@@H]2N1; β3hL = CC(C)C[C@H](N)CC(=O)O

Solved entries (count: 4):
Molecule	Measured metric	Result value
CC(C)C[C@@H](NC(=O)[C@H](Cc1ccc(O)cc1)NC(=O)[C@@H](N)CCCNC(=N)N)C(=O)N1CCC[C@H]1C(=O)N[C@H](C(=O)O)[C@@H](C)O [Analog 2328, RY[dL]PT] (H-RY[dL]PT-OH; N-terminus and C-terminus assumed)	Fold change	558.8
CC(C)C[C@H](NC(=O)[C@H](Cc1ccc(O)cc1)NC(=O)[C@@H](N)CCCNC(=N)N)C(=O)N1CCC[C@H]1C(=O)N[C@@H](C(=O)O)[C@H](C)O [Analog 2326, RYLP[dT]] (H-RYLP[dT]-OH; N-terminus and C-terminus assumed)	Fold change	7654.8
CC(C)C[C@@H](CC(=O)N1CCC[C@H]1C(=O)N[C@H](C(=O)O)[C@@H](C)O)NC(=O)[C@H](Cc1ccc(O)cc1)NC(=O)[C@@H](N)CCCNC(=N)N [Analog 2332, RY[β3L]PT] (H-RY[β3hL]PT-OH)	Fold change	661.7
CC(C)C[C@H](NC(=O)[C@@H](Cc1ccc(O)cc1)NC(=O)[C@@H](N)CCCNC(=N)N)C(=O)N1CCC[C@H]1C(=O)N[C@H](C(=O)O)[C@@H](C)O [Analog 2329, R[dY]LPT] (H-R[dY]LPT-OH; N-terminus and C-terminus assumed)	Fold change	824.5

Now look at this entry.
Record request: Fold change value, item CC(C)C[C@H](NC(=O)[C@@H](Cc1ccc(O)cc1)NC(=O)[C@@H](N)CCCNC(=N)N)C(=O)N1[C@H](C(=O)N[C@H](C(=O)O)[C@@H](C)O)C[C@@H]2CCCC[C@@H]21 [Analog 2340, R[dY]L[Oic]T] (H-R[dY]L[Oic]T-OH)
529.7
